- tested-on: T1, huROR1-His (human ROR1 ECD AA30-406 with C-terminal His tag, made in house) (human, UniProt Q01973 30-406)
- T1 construct: range 30-406; Expressed in HEK293; also called antigen protein huROR1-His; not shown: C-terminal His tag
- assay-notes: Gator (BLI) Advanced Kinetics; antibody 30 nM, huROR1-His 480-7.5 nM
Below, each of the binders is paired with its reported kon value.

{"columns": ["binder", "kon"],
 "data": [
  ["C38 (chimeric antibody) (antibody, human IgG1, kappa, V domains shown, ExpiCHO expression) VH: EVMLVESGGGLVRPGGSLKLSCAASGFTFSSYAMSWVRQTPDKRLEWVASINRDVTTYYPDSVKGRFTISRDNARNILYLQMSSLRSEDTAMYYCARDYYYGSSLYYGMDYWGQGTSVTVSS VL: DIQMTQSPSSMHASLGERVTITCKASQDINNYVSWFQQKPGKSPKTLIYRANRLVDGVPSRFSGSGSGQDYSFTISSLEYEDMGIYYCLQFDEFPYTFGGGTKLEIKR", "314000 M⁻¹ s⁻¹"],
  ["B74 (chimeric antibody) (antibody, human IgG1, kappa, V domains shown, ExpiCHO expression) VH: EVMLVESGGNLVKPGGSLKLSCAASGFTFSIYAMSWVRQTPEKRLEWVASISGGGTAYYPDSVKGRFTISRDNARNILYLQMSSLRSEDTAIYYCARGYYYGGSPYWHFDVWGAGTTVTVSS VL: DIKMTQSPSSMYASLGERVTITCKASQDINSYLSWFQQKPGKSPKTLIYRANRLVDGVPSRFSGSGSGQDYSLTISSLEYEDIGIYYCLQIDEFPYTFGGGTKLEIKR", "323000 M⁻¹ s⁻¹"]
]}

Next up:
kon reported for this binder C42 (chimeric antibody) (antibody, human IgG1, kappa, V domains shown, ExpiCHO expression) VH: EVMLVESGGGLVKPGGSLKLSCAASGFTFSNYIMSWVRQTPEKRLEWVATINSGGTNTYYPDSVKGRFTISRDNAKNSLYLQMNSLRSEDTALYYCTRYNGNYVWFAYWGQGTLVTVSA VL: DIVLTQSPAIMSASPGEKVTMTCSASSSVSFIYWYQQKPGSSPRLLIYDTSNLASGVPVRFSGSGSGTSYSLTISRMEAEDAATYYCQQWSNYHFTFGSGTKLEIKR : 110000 M⁻¹ s⁻¹
